measurementTarget: tau (Homo sapiens, UniProt P10636)
Sequence (P10636 623-695 limits assumed): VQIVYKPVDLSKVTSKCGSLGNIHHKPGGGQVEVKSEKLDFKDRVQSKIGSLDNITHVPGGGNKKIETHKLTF
assayComment: MCE Phenols Library screening, tau biosensor cell seeding assay (AvZ)
Assay type: cell-based
statedConditions: Z score, replicate 1
The following molecules are listed with their measured Z repl 1 values.

{"molecule": "O=C(O)c1cc(O)c2c(c1)[C@H]([C@H]1c3cc(C(=O)O)cc(O)c3C(=O)c3c(O[C@@H]4O[C@H](CO)[C@@H](O)[C@H](O)[C@H]4O)cccc31)c1cccc(O[C@@H]3O[C@H](CO)[C@@H](O)[C@H](O)[C@H]3O)c1C2=O [Sennoside A]", "Z repl 1": -1.043}
{"molecule": "O=C(O[C@@H]1Cc2c(O)cc(O)cc2O[C@@H]1c1ccc(O)c(O)c1)c1cc(O)c(O)c(O)c1 [(-)-Epicatechin gallate]", "Z repl 1": -1.161}
{"molecule": "Oc1cccc(O)c1O", "Z repl 1": -0.635}
{"molecule": "O=c1cc(-c2ccc(O)c(O)c2)oc2cc(O)c([C@@H]3O[C@H](CO)[C@@H](O)[C@H](O)[C@H]3O)c(O)c12", "Z repl 1": 0.708}
{"molecule": "COc1ccc2cc1Oc1ccc(cc1)C[C@H]1c3cc(c(OC)cc3CCN1C)Oc1c(O)c(OC)cc3c1[C@@H](C2)N(C)CC3 [(R)-Fangchinoline]", "Z repl 1": 0.226}
{"molecule": "O=C(O)C[C@@H]1C(=O)O[C@H]2[C@@H]3OC(=O)c4cc(O)c(O)c(O)c4-c4c(cc(O)c(O)c4O)C(=O)OC[C@H]2O[C@@H](OC(=O)c2cc(O)c(O)c(O)c2)[C@@H]3OC(=O)c2cc(O)c(O)c3c2[C@H]1[C@H](O)C(=O)O3", "Z repl 1": -2.151}
{"molecule": "Oc1cc(O)cc(/C=C/c2c(O)cccc2O)c1", "Z repl 1": -2.02}
{"molecule": "OCCc1ccc(O)cc1", "Z repl 1": -0.193}
{"molecule": "COc1ccc(-c2cc(=O)c3c(O)c(OC)c(O)cc3o2)cc1", "Z repl 1": -0.106}
{"molecule": "O=C(O)CNC(=O)c1cccc(O)c1 [3-Hydroxyhippuric acid]", "Z repl 1": 0.493}
{"molecule": "CC[C@@H](C(=O)[C@@H](C)[C@@H](O)[C@H](C)CCc1ccc(C)c(O)c1C(=O)O)[C@H]1O[C@](CC)([C@H]2CC[C@](O)(CC)[C@H](C)O2)C[C@@H]1C", "Z repl 1": 0.41}
{"molecule": "CC(C)c1cc2c(c(O)c1O)[C@@]13CCCC(C)(C)[C@@H]1C[C@@H]2OC3=O", "Z repl 1": 0.436}
{"molecule": "COc1cc2cc(Oc3ccc4ccc(=O)oc4c3)c(=O)oc2cc1O", "Z repl 1": -0.257}
{"molecule": "O=C(O)[C@H]1O[C@@H](Oc2cc(O)c3c(=O)cc(-c4ccc(O)c(O)c4)oc3c2)[C@H](O)[C@@H](O)[C@@H]1O [Luteolin 7-O-glucuronide]", "Z repl 1": -0.6}
